- measurement.target: Estrogen receptor beta (Homo sapiens, UniProt Q92731)
- Sequence (Q92731 whole entry): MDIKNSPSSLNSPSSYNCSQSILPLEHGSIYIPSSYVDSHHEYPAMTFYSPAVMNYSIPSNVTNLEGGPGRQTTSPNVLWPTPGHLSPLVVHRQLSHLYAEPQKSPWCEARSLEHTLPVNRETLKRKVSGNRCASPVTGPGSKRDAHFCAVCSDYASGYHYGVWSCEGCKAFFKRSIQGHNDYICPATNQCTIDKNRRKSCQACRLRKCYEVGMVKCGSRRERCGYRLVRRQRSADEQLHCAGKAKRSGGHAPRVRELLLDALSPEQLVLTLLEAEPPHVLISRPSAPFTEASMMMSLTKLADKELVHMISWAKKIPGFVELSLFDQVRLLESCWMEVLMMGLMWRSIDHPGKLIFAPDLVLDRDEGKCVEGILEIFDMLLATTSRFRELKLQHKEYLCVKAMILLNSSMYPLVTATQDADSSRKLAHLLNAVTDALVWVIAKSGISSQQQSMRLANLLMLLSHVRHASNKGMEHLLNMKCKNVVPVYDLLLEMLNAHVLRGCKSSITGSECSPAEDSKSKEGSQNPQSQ
What pEC50 was measured for each of the following?
Just so you know, pEC50 here is -log10 of the concentration in molar units; reply with that number alone.

Write down the reported pEC50 of Cc1ccc(-c2cc3ccc(O)cc3s2)cc1 , test system: Estrogen receptor beta (Homo sapiens, UniProt Q92731).
6.76

Param item: Cc1cc(-c2cc3ccc(O)cc3s2)ccc1O
6.52

Please do the same for Oc1ccc2cc(-c3ccccc3)sc2c1 as well.
6.78

// next record Oc1ccc2cc(-c3ccc(O)c(F)c3)sc2c1
7.49

---

EC50 tested on Estrogen receptor beta (Homo sapiens): recorded values

Record request: EC50 value, item Cc1cc(-c2cc3c(O)cc(O)cc3s2)ccc1O
> 1000 nM

Another molecule: Oc1cc(O)c2cc(-c3ccc(O)c(F)c3)sc2c1
> 1000 nM

Then what about the molecule CC(=O)c1cc(-c2cc3ccc(O)cc3s2)ccc1O ?
> 1000 nM
